Where do the numbers come from? From paper PMC12040169.

Measured viability at 28.5 h, 10 µM of individual entries
- experiment-summary: in vitro
- settings: human, hela cells, % viability
recorded-metric: viability at 28.5 h, 10 µM (%)

molecule: COc1ccc(CN2CC=CC2C(=O)O)cc1Cn1cncn1 (centres unmarked)
measured: 76.2
--
molecule: CN(C)CCN(C)c1cccc(-c2ccc(CCC(=O)O)cc2)n1
measured: 105
--
molecule: Cc1cc(C)nc(SCCC(=O)O)n1
measured: 87.7
--
molecule: Cc1cc(NS(=O)(=O)c2ccc(NC(=S)NCC3CCCO3)cc2)no1 (centres unmarked)
measured: 101
--
molecule: O=C(Cc1ccc(Cl)cc1)NC(=S)Nc1ccccc1[N+](=O)[O-]
measured: 95.4
--
molecule: Cc1nn(CC(=O)NC2CCC2)c(=O)c2cc3ccsc3n12
measured: 103
--
molecule: CC(=O)c1c(C)nn(C(C)CC(=O)O)c1C (centres unmarked)
measured: 103
--
molecule: CC(C)c1ccc(S(=O)(=O)Nc2cc(F)c(F)c(F)c2)cc1
measured: 104
--
molecule: CC(C)NC(=O)[C@@H](C)C1CC[C@@]2(C)CC[C@H](NC(=O)c3ccncc3)[C@@H](C)[C@@H]2[C@H]1O (some centres unmarked)
measured: 89.1
--
molecule: c1ccc(-c2nnc(-c3ccncc3)nc2-c2ccccc2)cc1
measured: 81.1
--
molecule: CC(CN1CCCCC1)OC(=O)COc1ccc(F)cc1 (centres unmarked) [CBK058066C]
measured: 93.6
--
molecule: Cc1cc(N)n(CC(=O)NCCCn2ccnc2C(C)C)n1
measured: 89.3
--
molecule: NC(=O)CN1C(=O)CO[C@H]2CN(Cc3cnc4ccccc4c3)C[C@H]21
measured: 106
--
molecule: CCCCC(C(=O)O)N1C(=O)C2CC=C(Cl)CC2C1=O (centres unmarked)
measured: 91.4
--
molecule: CNCS(=O)(=O)C(F)(F)S(=O)(=O)N(C)C
measured: 89.7
--
molecule: CSc1ccccc1NC(=O)c1cc(Cl)sc1Cl
measured: 99.2
--
molecule: Cn1c(-c2c(CCC(=O)O)oc3cc(O)ccc3c2=O)nc2ccccc21
measured: 96
--
molecule: FC(F)(F)c1nc2ccccc2nc1Sc1ccccn1
measured: 89
--
molecule: Cc1ccc2oc3c(c(=O)c2c1)C(c1ccc(OCC(N)=O)cc1)N(Cc1ccc2c(c1)OCO2)C3=O (centres unmarked)
measured: 91.3
--
molecule: CC1CCc2c(sc3ncnc(SC(C)C(=O)OC4CCCCC4)c23)C1 (centres unmarked)
measured: 104

====

- experiment-summary: in vitro
- settings: human, hela cells, % viability

molecule: CC(C)N1CCC(=NNC(=O)c2cc(O)c(O)c(O)c2)CC1 [CBK262626]
unit-tag: %
viability at 28.5 h, 10 µM: 117
//
molecule: COC(=O)C1CCCCN1S(=O)(=O)c1cccc2cccnc12 (stereo not shown) [CBK051244]
unit-tag: %
viability at 28.5 h, 10 µM: 82.2
//
molecule: O=C(O)CC/C(=N\NC(=O)c1cccnc1)c1ccccc1 [CBK261305]
unit-tag: %
viability at 28.5 h, 10 µM: 97.2
//
molecule: Cc1nc2cc(C(=O)N3CCc4[nH]c5ccccc5c4C3)ccc2n1C [CBK281842]
unit-tag: %
viability at 28.5 h, 10 µM: 60.6
//
molecule: CC(C)(C)c1csc(NC(=O)C2CC(=O)N(C3CCCC3)C2)n1 (stereo not shown) [CBK175544]
unit-tag: %
viability at 28.5 h, 10 µM: 105
//
molecule: CC(=O)N[C@H](C(=O)N1CC[C@H]2NC(=O)[C@@H](Cc3ccccc3)NC(=O)C3(C/C=C/C[C@H]2C1)CCOCC3)[C@@H](C)OC(C)(C)C [CBK292203]
unit-tag: %
viability at 28.5 h, 10 µM: 103
//
molecule: O=C(Nc1ccc(NC(=O)c2ccccc2O)cc1)c1cnc(-c2ccccc2)c(-c2ccncc2)c1 [CBK037490]
unit-tag: %
viability at 28.5 h, 10 µM: 80.5
//
molecule: CN(C)CCN(C)c1nc(-c2ccc(C(=O)O)cc2)cn2ccnc12 [CBK037880]
unit-tag: %
viability at 28.5 h, 10 µM: 96.7
//
molecule: Cc1sc2nc(SCc3nc4ccccc4[nH]3)n(Cc3ccco3)c(=O)c2c1C [CBK267554]
unit-tag: %
viability at 28.5 h, 10 µM: 112
//
molecule: CC12CCC(CC1C(=O)NC1CC1)[C@]1(C2)NC(=O)c2ccccc2N1 (stereo partly shown) [CBK284445]
unit-tag: %
viability at 28.5 h, 10 µM: 92.2
//
molecule: CCCNc1nccnc1-c1ccc(F)c(Cl)c1 [CBK037100]
unit-tag: %
viability at 28.5 h, 10 µM: 104
//
molecule: O=C(Nc1cccc2ccccc12)/C(=C\c1ccco1)NC(=O)c1ccc(Br)cc1 [CBK264587]
unit-tag: %
viability at 28.5 h, 10 µM: 104
//
molecule: Cc1c(C(=O)O)sc(S(=O)(=O)N2CCN(C(=O)CCC3CCCC3)CC2)c1C(=O)O [CBK297121]
unit-tag: %
viability at 28.5 h, 10 µM: 117
//
molecule: Cc1cccc(C(=O)N2CCCC(C)C2)c1 (stereo not shown) [CBK074057]
unit-tag: %
viability at 28.5 h, 10 µM: 95.4
//
molecule: CC(C)Oc1ccc(CCNC(=N)NC(=N)N)cc1Cl [CBK263966]
unit-tag: %
viability at 28.5 h, 10 µM: 91.5
//
molecule: O=S(=O)(c1ccccc1)N1Cc2cccc3[nH]cc(c23)C1 [CBK153275]
unit-tag: %
viability at 28.5 h, 10 µM: 102
//
molecule: O=C(O)c1cc(S(=O)(=O)N2CCCCC2)ccc1O [CBK286595]
unit-tag: %
viability at 28.5 h, 10 µM: 89.6
//
molecule: Cc1nc(CCN2CCN(c3ccc4nccn4n3)CC2)cs1 [CBK306932]
unit-tag: %
viability at 28.5 h, 10 µM: 95.6
//
molecule: c1ccc2c(c1)OCC(COc1ccnc(N3CCCN(CCc4ccc5ccccc5c4)CC3)n1)O2 (stereo not shown) [CBK083983]
unit-tag: %
viability at 28.5 h, 10 µM: 90.7
